List of Echinochloa crus-galli (Efficacy in %) values.
System: Echinochloa crus-galli
procedureText: Herbicidal action post-emergence (greenhouse pot trial)
Format: in vivo
statedConditions: application rate 20 g/ha, scored visually after about 3 weeks vs untreated controls
Report the figure in % without appending any unit label.

Problem: State the recorded Echinochloa crus-galli (Efficacy in %) for this entry: CC(Sc1cc(-n2c(=O)cc(C(F)(F)F)n(C)c2=O)c(F)cc1Cl)C(=O)OCC1CCSC1 (stereo not shown) [I.1-82]
Result: 100

Problem: State the recorded Echinochloa crus-galli (Efficacy in %) for this entry: CC(C)C(Sc1cc(-n2c(=O)cc(C(F)(F)F)n(C)c2=O)c(F)cc1Cl)C(=O)OCC1CCOC1 (stereo not shown) [I.6-72]
Result: 80

Problem: State the recorded Echinochloa crus-galli (Efficacy in %) for this entry: CC(C)C(Sc1cc(-n2c(=O)cc(C(F)(F)F)n(C)c2=O)c(F)cc1Cl)C(=O)NCC1CCCO1 (stereo not shown) [I.6-221]
Result: 80
